Tested on: ECHCG (Echinochloa crus-galli)
Test: Postemergence herbicidal evaluation
Type: in vivo, (L.) Beau
Conditions: rate 0.0620 kg/ha
Procedure: In the tests, seedling plants are grown in jiffy flats for about two weeks. […] After spraying, the plants are placed on greenhouse benches and are cared for in accordance with conventional greenhouse procedures. From four to five weeks after treatment, the seedling plants are examined and rated according to the rating system set forth below. Where more than one test is involved for a given compound, the data are averaged. Results of herbicide evaluation are expressed on a rating scale (0-9). […]
Everything with Postemergence herbicidal rating, ECHCG lower than 1 is -1; everything else, including exactly 1, is 1.

Compound: Cn1c(C(F)(F)F)cc(=O)n(-c2ccc3snc(-c4cccnc4)c3c2)c1=O
Assigned Category: -1
--
Compound: C[C@@H]1O[C@@H]1c1nsc2ccc(-n3c(=O)cc(C(F)(F)F)n(C)c3=O)cc12
Assigned Category: 1
--
Compound: Cc1csc(-c2nsc3ccc(-n4c(=O)cc(C(F)(F)F)n(C)c4=O)cc23)n1
Assigned Category: -1
--
Compound: Cc1cscc1-c1nsc2ccc(-n3c(=O)cc(C(F)(F)F)n(C)c3=O)cc12
Assigned Category: 1
--
Compound: Cn1c(C(F)(F)F)cc(=O)n(-c2ccc3snc(-c4ncccn4)c3c2)c1=O
Assigned Category: 1
--
Compound: Cn1c(C(F)(F)F)cc(=O)n(-c2ccc3snc(C4OCCO4)c3c2)c1=O
Assigned Category: 1
--
Compound: Cc1ccsc1-c1nsc2ccc(-n3c(=O)cc(C(F)(F)F)n(C)c3=O)cc12
Assigned Category: 1
--
Compound: Cc1nnc(-c2nsc3ccc(-n4c(=O)cc(C(F)(F)F)n(C)c4=O)cc23)s1
Assigned Category: -1
--
Compound: CN(C(=O)c1nsc2ccc(-n3c(=O)cc(C(F)(F)F)n(C)c3=O)cc12)c1ccc(Cl)cc1
Assigned Category: -1
--
Compound: C[C@@H]1OC(c2nsc3ccc(-n4c(=O)cc(C(F)(F)F)n(C)c4=O)cc23)O[C@@H]1C (some centres unmarked)
Assigned Category: 1

In: Kindly determine if Postemergence herbicidal rating, ECHCG recorded for Cn1ccnc1-c1nsc2ccc(-n3c(=O)cc(C(F)(F)F)n(C)c3=O)cc12 is above or exactly 1.
Out: -1

In: Kindly determine if Postemergence herbicidal rating, ECHCG recorded for COc1ccsc1-c1nsc2ccc(-n3c(=O)cc(C(F)(F)F)n(C)c3=O)cc12 is above or exactly 1.
Out: -1

In: Kindly determine if Postemergence herbicidal rating, ECHCG recorded for Cn1c(C(F)(F)F)cc(=O)n(-c2ccc3snc(-c4ccsc4)c3c2)c1=O is above or exactly 1.
Out: 1

In: Kindly determine if Postemergence herbicidal rating, ECHCG recorded for Cn1c(C(F)(F)F)cc(=O)n(-c2ccc3snc(C(SCCO)SCCO)c3c2)c1=O is above or exactly 1.
Out: 1

###

Please go through the items and note down their Postemergence herbicidal rating, TRZAWR.
Tested on: TRZAWR (Wheat, Winter, cv Riband)
Assay: Postemergence herbicidal evaluation
Format: in vivo, Triticum aestivum
Conditions: rate 0.1250 kg/ha
One number for each entry.

Solved cases (3 shown):
Compound: Cn1c(C(F)(F)F)cc(=O)n(-c2ccc3snc(-c4cccs4)c3c2)c1=O
Value Observed: 5.0
--
Compound: COC(=O)C(C)Oc1ccsc1-c1nsc2ccc(-n3c(=O)cc(C(F)(F)F)n(C)c3=O)cc12 (stereo not shown)
Value Observed: 5.0
--
Compound: COc1ccsc1-c1nsc2ccc(-n3c(=O)cc(C(F)(F)F)n(C)c3=O)cc12
Value Observed: 4.0

Quick note, Postemergence herbicidal rating, TRZAWR for Cc1ccc(-c2nsc3ccc(-n4c(=O)cc(C(F)(F)F)n(C)c4=O)cc23)nc1 landed at 5.0
